Source: PubChem BioAssay (NCI)

test: NCI Yeast Anticancer Drug Screen. Data for the rad50 strain (AID 155);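 further: 0% = growth of vehicle-only cultures of the same strain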; conditions: S. cerevisiae rad50 strain growth inhibition; at 50.0 µM; stronger effect = higher value
Compounds without any hit were thinned out: in the full panel of roughly 79,000, 15% have a hit. Activity calls are given as the source filed them. No stated cut-off is given here; in the data, active means growth inhibition above about 70%; inactive means the rest.
METRIC NAME: growth inhibition

Sample records with growth inhibition:
[
  {
    "MOLECULE": "Cc1ccc2c(c1)[nH]c(=S)n2C=C1C(=O)NC(=O)NC1=O",
    "growth inhibition": "-6.3% (inactive)"
  },
  {
    "MOLECULE": "NCCCC(=O)NCCCC(=O)O",
    "growth inhibition": "19.9% (inactive)"
  },
  {
    "MOLECULE": "Nc1cccc(C(CC(=O)O)CC(=O)O)c1",
    "growth inhibition": "14.8% (inactive)"
  }
]

In the following, a different molecule is considered.
In: Endpoint output: growth inhibition of "O=C(CCCn1ccnc1[N+](=O)[O-])NCCn1cnc([N+](=O)[O-])c1" . Value?
Out: 8.9% (inactive)

* * *

growth inhibition: recorded values
assay: NCI Yeast Anticancer Drug Screen. Data for the mlh1 rad18 strain (AID 175); conditions: S. cerevisiae mlh1 rad18 strain growth inhibition; at 50.0 µM; stronger effect = higher value
Compounds without any hit were thinned out: in the full panel of roughly 79,000, 15% have a hit.
// units = %; emit number, no label

In the examples that follow, each entry is paired with its recorded growth inhibition.
[
  {
    "COMPOUND": "COc1ccc(N=Cc2ccc(N(CCC#N)S(=O)(=O)c3ccccc3)cc2C)cc1",
    "growth inhibition / %": -10
  },
  {
    "COMPOUND": "Br/C=C\\Br",
    "growth inhibition / %": 5.35
  },
  {
    "COMPOUND": "CC(C)C1=CC23CCC4C(C)(C(=O)O)CCCC4(C)C2CC1C1C(=O)N(c2ccccc2)C(=O)C13 (configuration not stated)",
    "growth inhibition / %": 8.65
  },
  {
    "COMPOUND": "NCc1c(C(N)=O)ncn1Cc1ccccc1",
    "growth inhibition / %": -6.05
  },
  {
    "COMPOUND": "Nc1ccc(/C=C\\C(=O)c2ccccc2)cc1",
    "growth inhibition / %": 17.4
  },
  {
    "COMPOUND": "C=CCc1ccc(O)c(OC)c1",
    "growth inhibition / %": 25
  },
  {
    "COMPOUND": "CC(=O)N1CC(=O)N2C(=O)/C(=C/c3ccc(Cl)cc3)N=C12",
    "growth inhibition / %": -42.4
  },
  {
    "COMPOUND": "COC(=O)C(N)CO (configuration not stated)",
    "growth inhibition / %": -26.1
  },
  {
    "COMPOUND": "Cc1c(C)c2cc3c(=O)c(CCl)coc3c(C)c2oc1=O",
    "growth inhibition / %": -5.95
  },
  {
    "COMPOUND": "O=C(c1cccc(C(=O)N2CCCC2)n1)N1CCCC1",
    "growth inhibition / %": -18.8
  }
]

In: Which growth inhibition value is on record for "O=C1c2cc(Cl)ccc2-c2cc(Cl)c(Cl)cc21" ?
Out: 26.6

In: Query "Oc1ccccc1/C=N/n1cnnc1" next
Out: -19.2
